B1: TRIM9 (parent)
chain: PRNSCITCPQCHRSLILDDRGLRG

- Variants of: B1
- TEST DETAILS: protein stability index of a GFP-peptide fusion (GPS, HEK-293T) (PSI 1-6); higher = more stable;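 further: lentivirally expressed fusions sorted by FACS into six bins by GFP to DsRed ratio, PSI derived from sequencing read proportions per bin multiplied by bin number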
- STUDY CONDITIONS: c terminus: a fixed tail appended
METRIC: protein stability index
When you answer, write just the number.

Q) I have this variant here, `PRNSCITCPQCHRSPILDDRGLRG` , and I need its recorded protein stability index.
A) 2.77

Q) I have this variant here, `PRNSCITCPQCHRSLILDDRGLRN` , and I need its recorded protein stability index.
A) 1.86

Q) I have this variant here, `PRNSRITCPQCHRSLILDDRGLRG` , and I need its recorded protein stability index.
A) 3.09

Q) I have this variant here, `PRNSCITCPQCHRSLQLDDRGLRG` , and I need its recorded protein stability index.
A) 2.69

Q) I have this variant here, `PRNSCITCPQCWRSLILDDRGLRG` , and I need its recorded protein stability index.
A) 2.07

Q) I have this variant here, `PRNSCITCPQCHRSLILDDYGLRG` , and I need its recorded protein stability index.
A) 2.35

Q) I have this variant here, `PRNSCITCPQCHHSLILDDRGLRG` , and I need its recorded protein stability index.
A) 2.59

Q) I have this variant here, `PRNSCITCPQCHRSLILDDLGLRG` , and I need its recorded protein stability index.
A) 1.93

Q) I have this variant here, `PRNSCITCPQCHRSLILDDRGWRG` , and I need its recorded protein stability index.
A) 2.54

Q) I have this variant here, `PRNSCITCPQCHRSQILDDRGLRG` , and I need its recorded protein stability index.
A) 2.79

Q) I have this variant here, `PRNSCITCPQCHRSLILDDRGLTG` , and I need its recorded protein stability index.
A) 3

Q) I have this variant here, `PRNSCCTCPQCHRSLILDDRGLRG` , and I need its recorded protein stability index.
A) 2.26

Q) I have this variant here, `PRNSCITCPQCHRSCILDDRGLRG` , and I need its recorded protein stability index.
A) 1.95

Q) I have this variant here, `PRNSCITCPQCHRSLYLDDRGLRG` , and I need its recorded protein stability index.
A) 2.58

Q) I have this variant here, `PRNSCITCPQCHRSLIFDDRGLRG` , and I need its recorded protein stability index.
A) 2.44

Q) I have this variant here, `PRNSCITCPQCHRSLILDQRGLRG` , and I need its recorded protein stability index.
A) 2.77

Q) I have this variant here, `PRNSCITCRQCHRSLILDDRGLRG` , and I need its recorded protein stability index.
A) 2.58

Q) I have this variant here, `PRNSCITCPQCHRHLILDDRGLRG` , and I need its recorded protein stability index.
A) 2.25

Q) I have this variant here, `PRNSCITCPQCHRSLILDDRGGRG` , and I need its recorded protein stability index.
A) 2.3

Q) I have this variant here, `PRNSCIDCPQCHRSLILDDRGLRG` , and I need its recorded protein stability index.
A) 1.81

Q) I have this variant here, `PRNSCITCPQCHRSLILDDRGLPG` , and I need its recorded protein stability index.
A) 2.42

Q) I have this variant here, `PRNSCITCPQCHRSLNLDDRGLRG` , and I need its recorded protein stability index.
A) 2.49

Q) I have this variant here, `PRNSCITCPQCHRSLILDDMGLRG` , and I need its recorded protein stability index.
A) 2.21

Q) I have this variant here, `PRNYCITCPQCHRSLILDDRGLRG` , and I need its recorded protein stability index.
A) 2.17

Q) I have this variant here, `PRNSCITCPQCHISLILDDRGLRG` , and I need its recorded protein stability index.
A) 1.95

Q) I have this variant here, `PRNSCPTCPQCHRSLILDDRGLRG` , and I need its recorded protein stability index.
A) 2.6

Q) I have this variant here, `PRNSCITCPQCHRSLILDDRGLRV` , and I need its recorded protein stability index.
A) 2.32

Q) I have this variant here, `PRNSCILCPQCHRSLILDDRGLRG` , and I need its recorded protein stability index.
A) 1.99

Q) I have this variant here, `PFNSCITCPQCHRSLILDDRGLRG` , and I need its recorded protein stability index.
A) 1.89

Q) I have this variant here, `PRNACITCPQCHRSLILDDRGLRG` , and I need its recorded protein stability index.
A) 2

Q) I have this variant here, `PRNSCITCPECHRSLILDDRGLRG` , and I need its recorded protein stability index.
A) 1.53

Q) I have this variant here, `PRNSCITCYQCHRSLILDDRGLRG` , and I need its recorded protein stability index.
A) 3.11

Q) I have this variant here, `PRNSCITCPQCHRSLILDDRSLRG` , and I need its recorded protein stability index.
A) 1.71

Q) I have this variant here, `PRNSCITCPQCHRSLILDDRELRG` , and I need its recorded protein stability index.
A) 2.93

Q) I have this variant here, `LRNSCITCPQCHRSLILDDRGLRG` , and I need its recorded protein stability index.
A) 2.29

Q) I have this variant here, `PRNSCITCPQCHRSLIQDDRGLRG` , and I need its recorded protein stability index.
A) 2.25

Q) I have this variant here, `PRNVCITCPQCHRSLILDDRGLRG` , and I need its recorded protein stability index.
A) 2.27

Q) I have this variant here, `PRNSCITCPQCHRSLILDDRGVRG` , and I need its recorded protein stability index.
A) 2.55

Q) I have this variant here, `PRKSCITCPQCHRSLILDDRGLRG` , and I need its recorded protein stability index.
A) 1.94

Q) I have this variant here, `PRASCITCPQCHRSLILDDRGLRG` , and I need its recorded protein stability index.
A) 2.36

Q) I have this variant here, `PRNSCITTPQCHRSLILDDRGLRG` , and I need its recorded protein stability index.
A) 3.33
